Test: Caco2 Permeability Assay
Type: in vitro ADME
Conditions: human, pH 7.4, Caco-2, apical to basolateral, 5 μM
measurement.name: Papp A→B at 2 h, 5 μM
The reply should read as a number followed by its unit.

# Papp A→B at 2 h, 5 μM (compound: COCCOC(=O)Nc1cc(Oc2cnc3nc(Nc4cc5n(n4)CCC54CCC4)n(C)c3c2C#N)ccn1 [Example I-62] ) is 5 ×10⁻⁶ cm/s

Form: compound = Cn1c(Nc2cc3n(n2)CCC32CCC2)nc2ncc(Oc3ccnc(NC(=O)C4CC4)c3)c(C#N)c21 [Example I-122] ; Papp A→B at 2 h, 5 μM = 2 ×10⁻⁶ cm/s

Record Cn1cc(C(F)(F)F)cc(Nc2nc3ncc(Oc4ccnc(NC(=O)OCCN5CCOCC5)c4)c(C#N)c3n2C)c1=O [Example I-15] . Reported Papp A→B at 2 h, 5 μM: 4 ×10⁻⁶ cm/s

GET /value?item= CCN1CCN(Cc2ccc(Nc3nc4ccc(Oc5ccnc(NC(C)=O)c5)cc4n3C)cc2C(F)(F)F)CC1 [Example R-1, reference compound] &field=Papp A→B at 2 h, 5 μM returns 0.4 ×10⁻⁶ cm/s

Input Cn1cc(C(F)(F)F)cc(Nc2nc3ncc(Oc4ccnc(NC(=O)N5CCC5)c4)c(C#N)c3n2C)c1=O [Example I-7] . Output Papp A→B at 2 h, 5 μM: 6 ×10⁻⁶ cm/s

Entry COC1CN(C(=O)Nc2cc(Oc3cnc4nc(Nc5cc6n(n5)CCCC6(F)F)n(C)c4c3C#N)ccn2)C1 [Example I-26] , Papp A→B at 2 h, 5 μM reported as 2 ×10⁻⁶ cm/s

// sample COCC(=O)Nc1cc(Oc2cnc3nc(Nc4cc(C(F)(F)F)cn(C)c4=O)n(C)c3c2C#N)ccn1 [Example I-79] , its Papp A→B at 2 h, 5 μM was 15 ×10⁻⁶ cm/s

In plain terms, CN(C)C(=O)Nc1cc(Oc2cnc3nc(Nc4cc(C(F)(F)F)cn(C)c4=O)n(C)c3c2C#N)ccn1 [Example I-4] has a documented Papp A→B at 2 h, 5 μM of 7 ×10⁻⁶ cm/s

Item: CO[C@H]1CCN(C(=O)Nc2cc(Oc3cnc4nc(Nc5cc(C(F)(F)F)cn(C)c5=O)n(C)c4c3C#N)ccn2)C1 [Example I-14] | Papp A→B at 2 h, 5 μM: 4 ×10⁻⁶ cm/s

Briefly, Papp A→B at 2 h, 5 μM measured for COC1CN(C(=O)Nc2cc(Oc3cnc4nc(Nc5cc6n(n5)CCC65CCC5)n(C)c4c3C#N)ccn2)C1 [Example I-61] : 3 ×10⁻⁶ cm/s

Record CC(=O)Nc1cc(Oc2cnc3nc(Nc4cc5n(n4)CCCC54CC4)n(C)c3c2C#N)ccn1 [Example I-114] . Reported Papp A→B at 2 h, 5 μM: 4 ×10⁻⁶ cm/s

// Papp A→B at 2 h, 5 μM lookup, compound = CC(=O)Nc1cc(Oc2cnc3nc(Nc4cc5n(n4)CCOCC5(C)C)n(C)c3c2C#N)ccn1 [Example I-118] , result: 5 ×10⁻⁶ cm/s

// Papp A→B at 2 h, 5 μM value for CN(C)C(=O)Nc1cc(Oc2cnc3nc(Nc4cc5n(n4)CCC54CCC4)n(C)c3c2C#N)ccn1 [Example I-56] : 5 ×10⁻⁶ cm/s

Papp A→B at 2 h, 5 μM in this record for COCC(=O)Nc1cc(Oc2cnc3nc(Nc4cc(C(F)(F)F)cn(C)c4=O)n(C)c3c2Cl)ccn1 [Example I-75] : 12 ×10⁻⁶ cm/s

====

Biological target: Tyk2 (Homo sapiens, UniProt P29597)
Construct: made in house; host or cells: T7 phage in BL21-derived E. coli or HEK-293 cells
Sequence (P29597 whole entry): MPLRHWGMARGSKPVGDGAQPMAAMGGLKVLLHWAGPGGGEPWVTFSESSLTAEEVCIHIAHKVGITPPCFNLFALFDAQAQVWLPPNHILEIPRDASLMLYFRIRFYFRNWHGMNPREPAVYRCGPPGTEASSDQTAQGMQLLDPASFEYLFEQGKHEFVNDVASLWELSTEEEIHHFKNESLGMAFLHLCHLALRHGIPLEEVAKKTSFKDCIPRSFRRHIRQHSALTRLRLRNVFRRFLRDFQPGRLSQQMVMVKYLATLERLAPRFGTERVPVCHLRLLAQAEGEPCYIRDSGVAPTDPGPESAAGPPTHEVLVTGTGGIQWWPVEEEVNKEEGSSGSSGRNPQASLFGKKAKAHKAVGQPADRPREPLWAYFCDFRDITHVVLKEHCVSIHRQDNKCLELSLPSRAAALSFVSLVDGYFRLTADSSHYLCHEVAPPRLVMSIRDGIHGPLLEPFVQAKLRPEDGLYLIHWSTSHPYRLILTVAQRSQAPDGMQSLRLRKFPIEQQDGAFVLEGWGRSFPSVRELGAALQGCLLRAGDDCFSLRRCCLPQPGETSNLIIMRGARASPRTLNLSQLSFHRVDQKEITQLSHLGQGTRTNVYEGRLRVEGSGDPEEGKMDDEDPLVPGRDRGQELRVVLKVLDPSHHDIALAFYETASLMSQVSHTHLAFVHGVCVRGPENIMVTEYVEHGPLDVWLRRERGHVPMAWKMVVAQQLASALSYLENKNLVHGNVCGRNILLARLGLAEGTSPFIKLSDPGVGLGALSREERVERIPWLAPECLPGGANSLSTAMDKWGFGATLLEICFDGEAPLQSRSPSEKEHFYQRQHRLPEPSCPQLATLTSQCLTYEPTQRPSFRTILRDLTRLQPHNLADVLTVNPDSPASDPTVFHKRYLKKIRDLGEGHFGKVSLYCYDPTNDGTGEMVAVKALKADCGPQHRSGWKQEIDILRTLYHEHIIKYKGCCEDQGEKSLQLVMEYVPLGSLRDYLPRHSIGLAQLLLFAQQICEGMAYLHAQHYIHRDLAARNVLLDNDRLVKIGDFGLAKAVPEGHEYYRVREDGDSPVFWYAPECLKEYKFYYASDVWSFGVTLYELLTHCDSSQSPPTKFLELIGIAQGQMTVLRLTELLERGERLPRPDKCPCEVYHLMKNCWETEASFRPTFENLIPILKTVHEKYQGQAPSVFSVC
Test: JAK Family Selectivity Assay: Tyk2 vs JAK2 binding affinity
Conditions: Kd TYK2 over Kd JAK2
measurement.name: TYK2/JAK2 Kd/Kd ratio

Study these solved cases before continuing.
compound | tested.system | experimental.value
COC1CN(C(=O)Nc2cc(Oc3cnc4nc(Nc5cc6n(n5)CCC65CCC5)n(C)c4c3C#N)ccn2)C1 [Example I-61] | Tyk2 (Homo sapiens, UniProt P29597) | D (Kd/Kd ratio <100)
Cn1cc(C(F)(F)F)cc(Nc2nc3ncc(Oc4ccnc(NC(=O)N5CCC5)c4)c(C#N)c3n2C)c1=O [Example I-7] | Tyk2 (Homo sapiens, UniProt P29597) | D (Kd/Kd ratio <100)
CC(=O)Nc1cc(Oc2cnc3nc(Nc4cc(C(F)(F)F)cn(C)c4=O)n(C)c3c2Cl)c(F)cn1 [Example I-88] | Tyk2 (Homo sapiens, UniProt P29597) | D (Kd/Kd ratio <100)
CO[C@@H]1CCN(C(=O)Nc2cc(Oc3cnc4nc(Nc5cc6n(n5)CCC65CCC5)n(C)c4c3C#N)ccn2)C1 [Example I-60] | Tyk2 (Homo sapiens, UniProt P29597) | D (Kd/Kd ratio <100)

# context switch: different compound, same TYK2/JAK2 Kd/Kd ratio
Observed TYK2/JAK2 Kd/Kd ratio, Tyk2 (Homo sapiens, UniProt P29597), Cn1c(Nc2cc3n(n2)CCC32CCC2)nc2ncc(Oc3ccnc(NC(=O)C4CC4)c3)c(C#N)c21 [Example I-122] : D (Kd/Kd ratio <100)

====

So I've got a bunch of molecules here, and I need their solubility at 2 h values.
Assay: Kinetic Solubility Assay
Assay type: physicochemical
Details: aqueous buffer, kinetic from dmso stock, kinetic solubility in PBS (pH 4.0 and pH 7.4 in method; pH of table values not stated), RT

For this molecule ( COC1CN(C(=O)Nc2cc(Oc3cnc4nc(Nc5cc6n(n5)CCC65CCC5)n(C)c4c3C#N)ccn2)C1 [Example I-61] ), measured solubility at 2 h is 0.1 to 9 µM

solubility at 2 h recorded for this molecule, CO[C@H]1CCN(C(=O)Nc2cc(Oc3cnc4nc(Nc5cc(C(F)(F)F)cn(C)c5=O)n(C)c4c3C#N)ccn2)C1 [Example I-14] , is 0.1 to 9 µM

Measured solubility at 2 h, COCCOC(=O)Nc1cc(Oc2cnc3nc(Nc4cc5n(n4)CCC54CCC4)n(C)c3c2C#N)ccn1 [Example I-62] : 0.1 to 9 µM

Per the record, Cn1cc(C(F)(F)F)cc(Nc2nc3ncc(Oc4ccnc(NC(=O)O[C@@H]5CCOC5)c4)c(C#N)c3n2C)c1=O [Example I-18] has solubility at 2 h of 0.1 to 9 µM

Kindly note the recorded solubility at 2 h for Cn1cc(C(F)(F)F)cc(Nc2nc3ncc(Oc4ccnc(NC(=O)N5CCC5)c4)c(C#N)c3n2C)c1=O [Example I-7] , which is 0.1 to 9 µM

COC(=O)Nc1cc(Oc2cnc3nc(Nc4cc(C(F)(F)F)cn(C)c4=O)n(C)c3c2C#N)ccn1 [Example I-3] yielded solubility at 2 h of 0.1 to 9 µM

Per the records, this molecule ( CC(=O)Nc1cc(Oc2cnc3nc(Nc4cc5n(n4)CCCC54CC4)n(C)c3c2C#N)ccn1 [Example I-114] ) has solubility at 2 h equal to 9 to 100 µM

Per the record, COC(=O)Nc1cc(Oc2cnc3nc(Nc4cc5n(n4)CCC54CCC4)n(C)c3c2C#N)ccn1 [Example I-57] has solubility at 2 h of 0.1 to 9 µM

Input Cn1c(Nc2cc3n(n2)CCC32CCC2)nc2ncc(Oc3ccnc(NC(=O)C4CC4)c3)c(C#N)c21 [Example I-122] . Output solubility at 2 h: 0.1 to 9 µM

Record summary for Cn1c(Nc2cc3n(n2)CCOC3(C)C)nc2ncc(Oc3ccnc(NC(=O)O[C@@H]4CCOC4)c3)c(C#N)c21 [Example I-48] : reported solubility at 2 h = 0.1 to 9 µM

Recorded solubility at 2 h (molecule COC1CN(C(=O)Nc2cc(Oc3cnc4nc(Nc5cc6n(n5)CCCC6(F)F)n(C)c4c3C#N)ccn2)C1 [Example I-26] ): 9 to 100 µM

Lab note: measured solubility at 2 h of CN(C)C(=O)Nc1cc(Oc2cnc3nc(Nc4cc(C(F)(F)F)cn(C)c4=O)n(C)c3c2C#N)ccn1 [Example I-4] was 9 to 100 µM

Entry CO[C@@H]1CCN(C(=O)Nc2cc(Oc3cnc4nc(Nc5cc6n(n5)CCC65CCC5)n(C)c4c3C#N)ccn2)C1 [Example I-60] ; solubility at 2 h = 9 to 100 µM

solubility at 2 h measured on CCN1CCN(Cc2ccc(Nc3nc4ccc(Oc5ccnc(NC(C)=O)c5)cc4n3C)cc2C(F)(F)F)CC1 [Example R-1, reference compound] = 100 to 200 µM

====

Assay: Hepatocyte Stability Assay, rat hepatocytes
Format: in vitro ADME
Conditions: cryopreserved hepatocytes, read-out: Rat Heps CLint
Please respond with reported CLint scaled at 1 μM for every item in the list.

Lab note: `CC(=O)Nc1cc(Oc2cnc3nc(Nc4cc5n(n4)CCCC54CC4)n(C)c3c2C#N)ccn1` gave CLint scaled at 1 μM of 35 to 45 mL/min/kg

Value of measured CLint scaled at 1 μM for the entry `COC1CN(C(=O)Nc2cc(Oc3cnc4nc(Nc5cc6n(n5)CCCC6(F)F)n(C)c4c3C#N)ccn2)C1` : < 17 mL/min/kg

CLint scaled at 1 μM for `COC1CN(C(=O)Nc2cc(Oc3cnc4nc(Nc5cc6n(n5)CCC65CCC5)n(C)c4c3C#N)ccn2)C1` is 35 to 45 mL/min/kg

The compound `CN(C)C(=O)Nc1cc(Oc2cnc3nc(Nc4cc(C(F)(F)F)cn(C)c4=O)n(C)c3c2C#N)ccn1` showed CLint scaled at 1 μM equal to 17 to 35 mL/min/kg

Given item `CO[C@@H]1CCN(C(=O)Nc2cc(Oc3cnc4nc(Nc5cc6n(n5)CCC65CCC5)n(C)c4c3C#N)ccn2)C1` , the value recorded as its CLint scaled at 1 μM is 17 to 35 mL/min/kg
